# protocol.text: Kinetic solubility of MMTC diluted from DMSO stock into HBSS*
# Format: physicochemical
# study.conditions: HBSS* buffer, aqueous buffer, kinetic from dmso stock; 37°C, within 15 min, remained stable for at least 45 min; read-out: MMTC concentration after dilution of DMSO stock to 10 µM in HBSS*
test.readout: solubility kinetic

Bench note: what solubility kinetic did Cc1ccc(S(=O)(=O)N(C)c2ccsc2C(=O)NCc2ccccc2C(F)(F)F)cc1 [MMTC] show?
~2.5 µM

###

# protocol.text: Equilibrium solubility in HBSS* buffer (HPLC-UV)
# Format: physicochemical
# study.conditions: HEPES buffered HBSS (HBSS*) buffer, pH 7.4, 37°C, mean ± SD, N = 3
# Procedure: The mobile phases (MP) consisted of ultra-pure water containing 0.1% trifluoroacetic acid (MP A) and acetonitrile containing 0.1% trifluoroacetic acid (MP B). A reversed-phase column (Nova-Pak® C18, 4 μm, 3.9 × 150 mm, Waters, Milford, MA, United States) was applied and maintained at 22°C. […] Samples of 20 μL, maintained at 25°C, were injected and all five compounds were measured at 270 nm. […] Linear regression of peak height as a function of concentration was analyzed using GraphPad Prism 9.4.1. […]
test.readout: solubility thermodynamic (µM)
# output: bare number, implied unit µM

Bench note: what solubility thermodynamic did COC(=O)c1ccccc1NC(=O)Nc1c(-c2ccncc2)[nH]c2ccc(Cl)cc12 [55B] show?
13.3
